Test system: normal human ectocervical epithelial cells (CrEC 4627)
Experiment: MTT cell proliferation assay, ectocervical epithelial cells
Type: cell-based
Settings: Homo sapiens, Epithelial cell, read-out: IC50 ectocervical epithelial cells
Experimental: Normal human ectocervical (CrEC 4627) and endocervical epithelial cells (CrEC-En 4312) were obtained from Clonetics, (San Diego, Calif.) and propagated in T-150 cm^2 tissue culture flasks (Corning Corp., Corning, N.Y.) in small airway epithelial cell basal medium (Clonetics) supplemented with 50 μg/ml BPE, 0.5 μg/ml hydrocortisone, 0.5 μg/ml hEGF, 0.1 μg/ml retinoic acid, […] trasferrin, 5 μg/ml insulin, 5 μg/ml epinephrine, and 0.5 mg/ml BSA-FAF. […]
value.type: IC50

# compound.string, result
rows = [
    ("Fc1ccccc1CCNC(=S)Nc1ccc(Br)cn1", "> 1000 µM"),
]

###

tested on: normal human ectocervical epithelial cells (CrEC 4627); assay: MTT cell proliferation assay, ectocervical epithelial cells; assay type: cell-based; conditions: Homo sapiens, Epithelial cell, 24 h, read-out: IC50 ectocervical epithelial cells

# compound, tgt, IC50
measured = [
    ("Fc1ccccc1CCNC(=S)Nc1ccc(Br)cn1", "normal human ectocervical epithelial cells (CrEC 4627)", "> 1000 µM"),
    ("CCCCCCCCCc1ccc(OCCOCCOCCOCCOCCOCCOCCOCCOCCO)cc1 [Compound N-9, nonoxynol-9, reference compound]", "normal human ectocervical epithelial cells (CrEC 4627)", "15 µM"),
]

###

Below: a set of entries, each annotated with reported pEC50.
system: human sperm; experiment: Sperm immobilizing activity, concentration-dependent, CASA; type: cell-based; conditions: Homo sapiens, Sperm; 3 hours incubation at 37° C., CASA; read-out: Spermicidal activity EC50 (sperm motility)
pEC50: −log10 of the molar value.
value.type: pEC50

# compound.string, tgt, modifier.sign, readout.number
rows = [
    ("CSCSc1nc(Cc2ccccc2)c(C(C)C)c(=O)[nH]1", "human sperm", "=", 3.69),
    ("COc1ccc(OC)c(CCNC(=S)Nc2ccc(Br)cn2)c1", "human sperm", "<", 3.30),
]
